- targetOrSystem: Gag-Pol polyprotein (Human immunodeficiency virus type 1 group M subtype B (isolate HXB2)) (UniProt P04585)
- methodSummary: RNase H inhibition, HIV 1 Gag Pol polyprotein, FRET biochemical assay, screening (AID 372)
- runConditions: HIV-1 RT RNase H, FRET RNA/DNA substrate fluorescence; at 10 µM; hits give high values
The campaign covered roughly 100,000 compounds. About 770 (0.77%) were called active. Many of the other results were omitted from the sample, so actives are more common in it than they were.
Let's look at some compounds and their measured inhibition.

compound: Cc1sc(NC(=O)/C=C/c2ccc(Cl)cc2Cl)c(C(N)=O)c1C
inhibition, %: 26

compound: O=C(Nc1ccccc1I)c1ncn[nH]1
inhibition, %: 54

compound: COc1ccc(C(=O)Nc2ccc(/C=C/C(=O)c3ccccc3)cc2)cc1
inhibition, %: 8

compound: Cc1cc(C)n(C(=O)C(C)N2C(=O)c3ccccc3C2=O)n1 (stereo not drawn)
inhibition, %: 43

compound: NNC(=O)COc1ccccc1-c1ccccc1
inhibition, %: 14

compound: O=C(COc1cc(O)c2c(=O)cc(-c3ccccc3)oc2c1)c1ccccc1
inhibition, %: 3

compound: O=C(N/N=C/c1cccc(Br)c1)C(=O)N1CCCC1
inhibition, %: 15

compound: Cc1ccccc1N1C(=O)NC(=O)/C(=C\c2cccn2-c2ccc(Cl)cc2)C1=O
inhibition, %: 42

compound: CCOC(=O)C1=C(C)N=c2s/c(=C\c3cc(Br)c(OC)c(OC)c3)c(=O)n2C1c1ccc(OC)c(OC)c1 (stereo not drawn)
inhibition, %: 18

compound: Cc1cc(C)cc(-n2c(C)cc(/C=N/NC(=O)c3cccnc3)c2C)c1
inhibition, %: 13

compound: COc1ccc([N+](=O)[O-])cc1N1C(=O)C=CC1=O
inhibition, %: 4

compound: Cc1cn(C(=O)C(C)N2C(=O)c3ccccc3C2=O)c(C)n1 (stereo not drawn)
inhibition, %: 53

compound: Cc1ccc(/C=C2\SC(=S)N(CCC(=O)Nc3cc(Cl)cc(Cl)c3)C2=O)cc1
inhibition, %: 14

compound: COC(=O)c1ccc(COc2ccc3c(c2)oc(=O)c2cc(OC)ccc23)cc1
inhibition, %: 59

compound: Cc1cc(Cl)ccc1OCC(=O)Nc1cc(Cl)c(Cl)cc1Cl
inhibition, %: 5

compound: COc1ccc(NC(=O)/C(C#N)=C/c2cccc(O)c2)cc1
inhibition, %: 12

compound: Cc1cccc(NC(=O)c2ncn[nH]2)c1C
inhibition, %: 0

compound: CCN(CC)c1nc2c(s1)C(=O)CC(C)(C)C2
inhibition, %: 0

compound: O=C1c2ccccc2NC(c2ccccc2F)N1c1ccc(Cl)cc1 (stereo not drawn)
inhibition, %: 5

compound: COc1ccc2c(c1)c(=O)oc1cc(OCc3ccc(C(=O)O)cc3)ccc12
inhibition, %: 19

compound: O=C1C(=O)N(c2ccccc2)C(c2ccc([N+](=O)[O-])cc2)/C1=C(/O)c1ccccn1 (stereo not drawn)
inhibition, %: 0

compound: Oc1ccc(Cl)cc1-c1cc(-c2ccc(Cl)cc2)n[nH]1
inhibition, %: 0

compound: CCOC(=O)C1=NN(c2ccccc2)C(=O)/C1=C\c1ccc(F)cc1
inhibition, %: 0

###

Catalogue of inhibition readings, one per entry.
- targetOrSystem: Gag-Pol polyprotein (Human immunodeficiency virus type 1 group M subtype B (isolate HXB2))
- methodSummary: RNase H inhibition, HIV 1 Gag Pol polyprotein, FRET biochemical assay, screening (AID 372)
- runConditions: HIV-1 RT RNase H, FRET RNA/DNA substrate fluorescence; at 10 µM; hits give high values
Among all 100,000 compounds or so, about 770 (0.77%) were called active. What follows is part of a selection rich in actives, with near analogues and random picks from the rest.
recordedMetric: inhibition

molecule: O=C(/C=C/c1ccco1)/C=C/c1ccc(-c2ccc(Br)cc2)o1
recordedMetric: inhibition
recordedValue: 33% (inactive)
--
molecule: CN1C(=O)S/C(=C/c2ccc(Sc3ccccc3)o2)C1=O
recordedMetric: inhibition
recordedValue: 52% (active)
--
molecule: Cc1cc(Oc2cc(NC(=O)c3cc(-c4ccccc4)nc4ccccc34)cc([N+](=O)[O-])c2)ccc1Cl
recordedMetric: inhibition
recordedValue: 0% (inactive)
--
molecule: O=c1[nH]c(-c2cccc(O)c2)nc2sc3c(c12)CCCC3
recordedMetric: inhibition
recordedValue: 22% (inactive)
--
molecule: COc1ccc(C(=O)Nc2cccc(-c3nc4cc(C)c(C)cc4o3)c2)cc1[N+](=O)[O-]
recordedMetric: inhibition
recordedValue: 52% (active)
--
molecule: CCc1ccccc1NC(=O)c1ccc(CN2CCc3ccccc3C2)cc1
recordedMetric: inhibition
recordedValue: 7% (inactive)
--
molecule: Cc1ccc(Sc2ccc(/C=C3/SC(=S)N(C)C3=O)o2)cc1
recordedMetric: inhibition
recordedValue: 45% (inactive)
--
molecule: COc1ccc(C(=O)Nc2ccc(NC(=O)c3ccc(OC)cc3)cc2)cc1
recordedMetric: inhibition
recordedValue: 16% (inactive)
--
molecule: COc1cccc(OCCCCOc2ncnc3ccccc23)c1
recordedMetric: inhibition
recordedValue: 10% (inactive)
--
molecule: O=C1CC(c2ccccc2)CC(O)=C1C=NCCN1CCNCC1 (stereo unspecified)
recordedMetric: inhibition
recordedValue: 0% (inactive)
--
molecule: COc1ccc(C(=O)Nc2cccc(-c3nc4cc(C)ccc4o3)c2)cc1[N+](=O)[O-]
recordedMetric: inhibition
recordedValue: 1% (inactive)
--
molecule: COc1ccc(-c2nc3cc(NC(=O)c4ccc(C)c([N+](=O)[O-])c4)ccc3o2)cc1
recordedMetric: inhibition
recordedValue: 61% (active)
--
molecule: O=C(Nc1ccccn1)c1ccc2c(c1)C(=O)N(c1cccc3c(N4C(=O)c5ccc(C(=O)Nc6ccccn6)cc5C4=O)cccc13)C2=O
recordedMetric: inhibition
recordedValue: 2% (inactive)
--
molecule: O=C(Nc1ccc2oc(-c3cc(Br)ccc3Cl)nc2c1)c1ccccc1
recordedMetric: inhibition
recordedValue: 29% (inactive)
--
molecule: COc1ccc(C(=O)Nc2ccc(Cc3ccncc3)cc2)cc1OC
recordedMetric: inhibition
recordedValue: 6% (inactive)
--
molecule: COC(=O)c1c(C)oc2ccc(OS(C)(=O)=O)cc12
recordedMetric: inhibition
recordedValue: 0% (inactive)
--
molecule: C=CCN1C(=O)C(Cc2ccc(F)cc2)S/C1=N\N=C\c1ccco1 (stereo unspecified)
recordedMetric: inhibition
recordedValue: 3% (inactive)
--
molecule: Cc1ccccc1-c1nc2cc(NC(=O)c3ccc(C)c([N+](=O)[O-])c3)ccc2o1
recordedMetric: inhibition
recordedValue: 41% (inactive)
--
molecule: O=C(/C=C/c1ccc(-c2ccc(Cl)c(Cl)c2)o1)c1ccco1
recordedMetric: inhibition
recordedValue: 2% (inactive)
--
molecule: CCc1ccc(-c2nc3cc(NC(=O)c4ccc(C)c([N+](=O)[O-])c4)ccc3o2)cc1
recordedMetric: inhibition
recordedValue: 35% (inactive)
--
molecule: COc1cc(C(=O)Nc2ccc(Cc3ccc(NC(=O)c4cc(OC)c(OC)c(OC)c4)cc3)cc2)cc(OC)c1OC
recordedMetric: inhibition
recordedValue: 1% (inactive)

###

- targetOrSystem: Gag-Pol polyprotein (Human immunodeficiency virus type 1 group M subtype B (isolate HXB2)) (UniProt P04585)
- methodSummary: RNase H inhibition, HIV 1 Gag Pol polyprotein, FRET biochemical assay, screening (AID 372)
- runConditions: HIV-1 RT RNase H, FRET RNA/DNA substrate fluorescence; at 10 µM; hits give high values
About 770 (0.77%) of roughly 100,000 compounds were called active. The entries come from a sample that favours actives as a whole.
recordedMetric: inhibition (%)

molecularString: Cc1cccc(-c2nc3cc(NC(=O)Cc4ccccc4)ccc3o2)c1
recordedValue: 12
//
molecularString: O=C(/C=C/c1ccccc1)Nc1ccc(-c2nnc(-c3ccco3)o2)cc1
recordedValue: 0
//
molecularString: O=C(Cc1ccc(Cl)cc1)Nc1ccc2oc(-c3ccccc3Cl)nc2c1
recordedValue: 54
//
molecularString: CCOC(=O)/C(C#N)=C1/C=C(c2ccccc2)N=C(c2ccccc2)N1
recordedValue: 16
//
molecularString: O=C(Cc1ccc(Cl)cc1)Nc1ccc2oc(-c3cccc(Br)c3)nc2c1
recordedValue: 49

###

- targetOrSystem: Gag-Pol polyprotein (Human immunodeficiency virus type 1 group M subtype B (isolate HXB2)) (UniProt P04585)
- methodSummary: RNase H inhibition, HIV 1 Gag Pol polyprotein, FRET biochemical assay, screening (AID 372)
- runConditions: HIV-1 RT RNase H, FRET RNA/DNA substrate fluorescence; at 10 µM; hits give high values
The whole screen tested about 100,000 compounds, of which about 770 (0.77%) were called active. For the sample, actives were picked, then their nearest neighbours and some compounds at random.

molecularString: CN1C(=O)C(=Cc2ccc(I)o2)C(=O)N(C)C1=S
inhibition [%]: 21

molecularString: COc1ccc(C(=O)Nc2ccc(NC(C)=O)cc2)cc1[N+](=O)[O-]
inhibition [%]: 5

molecularString: O=C1C(=Cc2ccc(I)o2)C(=O)c2ccccc21
inhibition [%]: 9

molecularString: O=C(Nc1ccccc1)c1ccc2c(c1)C(=O)N(c1cccc(N3C(=O)c4ccc(C(=O)Nc5ccccc5)cc4C3=O)n1)C2=O
inhibition [%]: 8

molecularString: COC(=O)c1ccc(NC(=O)c2ccc3c(c2)C(=O)N(c2ccc([N+](=O)[O-])cc2)C3=O)cc1
inhibition [%]: 52

molecularString: CCOc1ccc(C(=O)Nc2cccc(NC(=O)c3ccccc3)c2)cc1[N+](=O)[O-]
inhibition [%]: 0

molecularString: Cc1ccc(NC(=O)c2cccc([N+](=O)[O-])c2)cc1C
inhibition [%]: 1

molecularString: COc1ccc(-c2cc(C(=O)Nc3cccc(Cl)c3)c3ccccc3n2)cc1OC
inhibition [%]: 14

molecularString: O=C(Nc1ccc(O)cc1)c1ccc2c(c1)C(=O)N(c1cccc(N3C(=O)c4ccc(C(=O)Nc5ccc(O)cc5)cc4C3=O)n1)C2=O
inhibition [%]: 54
